tested-system: T1, human Protein S (human, UniProt P07225 42-676)
T1 construct: also called ProS; ProS1
T1 sequence: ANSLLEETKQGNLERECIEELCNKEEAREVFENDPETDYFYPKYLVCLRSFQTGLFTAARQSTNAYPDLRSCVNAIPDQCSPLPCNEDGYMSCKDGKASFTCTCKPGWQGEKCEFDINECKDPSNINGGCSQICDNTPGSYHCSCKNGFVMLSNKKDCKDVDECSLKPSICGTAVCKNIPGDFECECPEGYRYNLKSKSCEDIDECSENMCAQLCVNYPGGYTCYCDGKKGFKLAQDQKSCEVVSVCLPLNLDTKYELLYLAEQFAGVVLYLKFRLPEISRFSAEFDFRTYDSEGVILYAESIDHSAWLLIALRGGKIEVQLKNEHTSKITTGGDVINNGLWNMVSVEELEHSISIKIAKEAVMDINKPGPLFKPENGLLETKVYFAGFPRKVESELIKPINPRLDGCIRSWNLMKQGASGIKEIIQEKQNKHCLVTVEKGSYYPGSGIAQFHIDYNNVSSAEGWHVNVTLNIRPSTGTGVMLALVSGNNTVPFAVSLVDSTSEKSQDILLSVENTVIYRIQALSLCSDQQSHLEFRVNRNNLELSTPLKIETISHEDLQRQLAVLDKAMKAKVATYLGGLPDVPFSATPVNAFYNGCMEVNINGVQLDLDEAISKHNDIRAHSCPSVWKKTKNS
test-method-notes: BLI Octet; antibody on anti-human Fc probe; Protein S 7.81-500 nM; 4 mM CaCl2
metric: kon (M⁻¹ s⁻¹)
Quick note: give the figure in M⁻¹ s⁻¹, leave out the unit.

Some binders with recorded kon:
[
  {
    "binder": "Antibody 27 (antibody, V domains shown, Same variable regions as Antibody 33) VH: QVQLQQSGPGLVKPSQTLSLTCAISGDSVSNNNAAWNWIRQSPSRGLEWLGGTYYRSKWYNDYAVSVKSRIIINPVTSKNQFSLQLNSVTPEDTAVYYCARGSSWYRFFDYWGQGTLVTVSS VL: EIVLTQSPGTLSLSPGERATLSCRASQSVGSSYLAWYQQKPGQAPRLLISGASGRATGIPDRFSGSGSGTDFTLTISRLEPEDFTVYYCQQYGSSPYTFGQGTKLEIK",
    "kon / M⁻¹ s⁻¹": 277000
  },
  {
    "binder": "Antibody 28 (antibody, V domains shown) VH: QVQLQQSGTELVRPGTSVKMSCKAAGYTFTNHWIGWVKQRPGHGLEWIGDIYPGGGYTNYNEKFKGKASLTADTSSTTAYMQLSSLTSEDSAIYYCSRFGDQNWAWFAYWGQGTLVTVSA VL: DIQMNQSPSSLSASLGDTITITCRASQNIHMWLSWYQQKPGNIPKLLIFKTSNLHTGVPSRFSGSGSGTDFTLTISSLQPEDIATYYCLQGQSYPFTFGGGTKLEIK",
    "kon / M⁻¹ s⁻¹": 156000
  },
  {
    "binder": "Antibody 4 (antibody, V domains shown, Same variable regions as Antibody 16) VH: QVQLVESGGGVVQPGRSLRLSCAASGFTFSTYGFHWVRQPPGKGLEWVAVIYYDGINKYYADSVKGRFTISRDNSKNTLFLQMNSLRAEDTAVYYCAESDLDYWGQGTLVTVSS VL: EIVLTQSPATLSLSPGERATLSCRASQSVSIYLAWYQQKPGQAPRLLIYDASNRATGIPARFSGSGSGTDFTLTISSLEPEDFAVYYCQQRSNWPLTFGPGTKVDIK",
    "kon / M⁻¹ s⁻¹": 271000
  },
  {
    "binder": "Antibody 39 (antibody, V domains shown, Same variable regions as Antibody 40) VH: EVQLVESGGGLVQPGGSLRLSCAASGFTFSSYSMNWVRQAPGKGLEWVAYISSSTRTIFYADSVKGRFTISRDNAKNSLYLQMNSLRDEDTAFYYCARERSAFDYWGQGTLVTVSS VL: SYVLTQPPSVSVAPGQTARITCGGDNIGGKSVHWYQQKPGQAPVMVVYDDSDRPSGIPERFAGSNSGNTATLAISRVEAGDEADYYCQVWEITSDHPAFGGGTRLTVL",
    "kon / M⁻¹ s⁻¹": 234000
  }
]

Okay, now this binder:
Antibody 30 (antibody, V domains shown, Same variable regions as Antibody 36) VH: EVQLVESGGGLVKPGGSLRLSCAASGFTFSSYNMNWVRQAPGRGLDWVSSISSSSSYIYYADSVKGRFTISRDNAKNSLYLQMNTLRAEDTAVYYCARDEEWELLTGFDYWGQGTLVTVSS VL: DIQMTQSPSSLSASVGDRVTITCRASQGINNYLAWFQQKPGKAPKSLIYAASNLQSGVPLKFSGSGSGTDFTLTISSLQPEDFATYYCQQYNSYPITFGQGTRLEIK yielded kon of 24200
